- Experimental System: BuChE purified from human plasma (Homo sapiens)
- Construct: BuChE purified from human plasma; from tissue; host or cells: human plasma
- Assay Info: Ellman assay, BuChE inhibition
- Type: biochemical
- Experimental Parameters: n = 3; read-out: BChE pIC50 ± SEM (converted)
- Description: Inhibitory activities of the isosorbide-2-carbamates bearing a lipoate ester (7a–d), a ferulate ester (8a–d) ester or 5-unsubstituted compounds (6a–d) was measured using the standard Ellman spectrophotometric method using AChE from electric eel or BuChE purified from human plasma with acetylthiocholine or butyrylthiocholine as appropriate (Table 1). […] Cholinesterase activity was measured using the Ellman spectrophotometric method. […]
Rule for this label: rule met means IC50 is less than 10 µM; rule not met means IC50 is at least 10 µM.

Asked: Input COc1cc(/C=C/C(=O)O[C@@H]2CO[C@H]3[C@@H]2OC[C@@H]3OC(=O)Nc2ccccc2)ccc1O [Compound 8b, Isosorbide-2-phenylcarbanate-5-ferulate] ; condition: IC50 strictly below 10 µM. Does it hold?
Given back: rule not met

Asked: Please determine if CCNC(=O)O[C@H]1CO[C@H]2[C@@H]1OC[C@H]2OC(=O)CCCCC1CCSS1 (stereo partly drawn) is below 10 µM in terms of IC50.
Given back: rule met

Asked: Dear colleague, could you confirm whether IC50 of CCNC(=O)O[C@H]1CO[C@H]2[C@@H]1OC[C@H]2OC(=O)/C=C/c1ccc(O)c(OC)c1 [Compound 8d, Isosorbide-2-ethylcarbanate-5-ferulate] falls below 10 µM? Thanks.
Given back: rule not met

Asked: Hello, I'm reviewing records and need to know if IC50 of CCCCNC(=O)O[C@H]1CO[C@H]2[C@@H]1OC[C@H]2O [Compound 6c, Isosorbide-2-butylcarbamate] is below 10 µM. Could you check?
Given back: rule not met

Asked: For this compound, is IC50 lower than 10 µM? O=C(CCCCC1CCSS1)O[C@@H]1CO[C@H]2[C@@H]1OC[C@@H]2OC(=O)Nc1ccccc1 (stereo partly drawn)
Given back: rule not met

Asked: Just wondering, is IC50 of CCCCNC(=O)O[C@H]1CO[C@H]2[C@@H]1OC[C@H]2OC(=O)/C=C/c1ccc(O)c(OC)c1 [Compound 8c, Isosorbide-2-butylcarbanate-5-ferulate] below 10 µM?
Given back: rule met

----------
Provide the reported Selectivity of each item.
- Experimental System: BuChE purified from human plasma (Homo sapiens, UniProt P06276)
- Construct: BuChE purified from human plasma; from tissue; host or cells: human plasma
- Sequence (P06276 29-602): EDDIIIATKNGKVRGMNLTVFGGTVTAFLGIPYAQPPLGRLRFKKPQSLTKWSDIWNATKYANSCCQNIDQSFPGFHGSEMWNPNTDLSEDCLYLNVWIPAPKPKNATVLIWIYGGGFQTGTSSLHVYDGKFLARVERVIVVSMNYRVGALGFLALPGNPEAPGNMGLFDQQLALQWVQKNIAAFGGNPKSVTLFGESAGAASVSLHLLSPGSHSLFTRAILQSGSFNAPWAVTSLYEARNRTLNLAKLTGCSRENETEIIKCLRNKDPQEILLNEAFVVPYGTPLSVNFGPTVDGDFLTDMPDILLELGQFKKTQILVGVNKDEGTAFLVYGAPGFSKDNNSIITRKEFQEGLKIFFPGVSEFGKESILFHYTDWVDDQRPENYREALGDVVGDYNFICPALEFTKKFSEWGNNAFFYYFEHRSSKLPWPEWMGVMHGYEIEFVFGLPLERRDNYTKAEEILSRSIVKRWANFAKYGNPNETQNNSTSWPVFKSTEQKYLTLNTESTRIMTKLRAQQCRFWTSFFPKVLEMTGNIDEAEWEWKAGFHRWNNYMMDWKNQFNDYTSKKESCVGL
- Assay Info: Ellman assay, BuChE inhibition
- Type: biochemical
- Experimental Parameters: IC50 AChE/IC50 BuChE; 100 µM used for AChE where % inhibition at 100 µM was <50%
When you answer, write just the number.

Measured Selectivity of O=C(NCc1ccccc1)O[C@H]1CO[C@H]2[C@@H]1OC[C@H]2O [Compound 6a, Isosorbide-2-benzylcarbamate] : 1.45

Lab note: COc1cc(/C=C/C(=O)O[C@@H]2CO[C@H]3[C@@H]2OC[C@@H]3OC(=O)Nc2ccccc2)ccc1O [Compound 8b, Isosorbide-2-phenylcarbanate-5-ferulate] gave Selectivity of 0.92

----------
- Experimental System: BuChE purified from human plasma (Homo sapiens)
- Construct: BuChE purified from human plasma; from tissue; host or cells: human plasma
- Assay Info: Ellman assay, BuChE inhibition
- Format: biochemical
- Experimental Parameters: inhibitor added 30 min before; n = 3; read-out: BChE IC50
Readout Label: pIC50
Remember the convention: pIC50 equals -log10 of concentration in molar.

Memo: CCNC(=O)O[C@H]1CO[C@H]2[C@@H]1OC[C@H]2OC(=O)/C=C/c1ccc(O)c(OC)c1 [Compound 8d, Isosorbide-2-ethylcarbanate-5-ferulate] , reported pIC50: 4.02

pIC50 reported for this compound CCCCNC(=O)O[C@H]1CO[C@H]2[C@@H]1OC[C@H]2O [Compound 6c, Isosorbide-2-butylcarbamate] : 4.55

Briefly, pIC50 measured for CCCCNC(=O)O[C@H]1CO[C@H]2[C@@H]1OC[C@H]2OC(=O)CCCCC1CCSS1 (stereo partly drawn) [Compound 7c] : 6.77

get_value(item= O=C(CCCCC1CCSS1)O[C@@H]1CO[C@H]2[C@@H]1OC[C@@H]2OC(=O)Nc1ccccc1 (stereo partly drawn) [Compound 7b] , readout=pIC50) returns 4.88

For this compound ( CCNC(=O)O[C@H]1CO[C@H]2[C@@H]1OC[C@H]2O [Compound 6d, Isosorbide-2-ethylcarbamate] ), measured pIC50 is 4.33

Documented pIC50 of CCNC(=O)O[C@H]1CO[C@H]2[C@@H]1OC[C@H]2OC(=O)CCCCC1CCSS1 (stereo partly drawn) [Compound 7d] : 5.24

Lab book: pIC50 of O=C(CCCCC1CCSS1)O[C@@H]1CO[C@H]2[C@@H]1OC[C@@H]2OC(=O)NCc1ccccc1 (stereo partly drawn) [Compound 7a] noted as 6.82

The reported value for COc1cc(/C=C/C(=O)O[C@@H]2CO[C@H]3[C@@H]2OC[C@@H]3OC(=O)Nc2ccccc2)ccc1O [Compound 8b, Isosorbide-2-phenylcarbanate-5-ferulate] in terms of pIC50 is 4.54

Query O=C(NCc1ccccc1)O[C@H]1CO[C@H]2[C@@H]1OC[C@H]2O [Compound 6a, Isosorbide-2-benzylcarbamate] yields pIC50 of 4.59

Notebook: COc1cc(/C=C/C(=O)O[C@@H]2CO[C@H]3[C@@H]2OC[C@@H]3OC(=O)NCc2ccccc2)ccc1O [Compound 8a, Isosorbide-2-benzylcarbanate-5-ferulate] , pIC50 read as 5.74

response.value for CCCCNC(=O)O[C@H]1CO[C@H]2[C@@H]1OC[C@H]2OC(=O)/C=C/c1ccc(O)c(OC)c1 [Compound 8c, Isosorbide-2-butylcarbanate-5-ferulate] (field: pIC50) = 6.37
